experimental.target: hMC4-R (Homo sapiens (Human))
test.protocol: High and low density hMC4-R functional assay (cAMP, HEK293-T-REx-MC4-R cells)
Format: cell-based
conditions.used: 10 ng/mL Doxycycline (high density hMC4-R system); NDP-α-MSH = 100%; read-out: Intrinsic Activity (%)
quantity.measured: Emax (%)

INSERT INTO measurements (compound, quantity_measured, measurement_unit, recorded_result) VALUES
  ('CC(=O)N[C@@H](CCCNC(=N)N)C(=O)N[C@H]1CCCNC(=O)CC[C@@H](C(N)=O)NC(=O)[C@H](Cc2c[nH]c3ccccc23)NC(=O)[C@H](CCCNC(=N)N)NC(=O)[C@@H](Cc2ccccc2Cl)NC(=O)[C@H](CCC(N)=O)NC1=O [Example 112]', 'Emax', '%', 101),
  ('CC(=O)N[C@H](CCCNC(=N)N)C(=O)N[C@H]1CCCNC(=O)CC[C@@H](C(N)=O)NC(=O)[C@H](Cc2c[nH]c3ccccc23)NC(=O)[C@H](CCCNC(=N)N)NC(=O)[C@@H](Cc2ccc(F)c(F)c2)NC(=O)[C@H](Cc2c[nH]cn2)NC1=O [Example 54]', 'Emax', '%', 92),
  ('CC(=O)N[C@@H](CCCNC(=N)N)C(=O)N[C@H]1CC(=O)NCCCC[C@@H](C(N)=O)NC(=O)[C@H](Cc2c[nH]c3ccccc23)NC(=O)[C@H](CCCNC(=N)N)NC(=O)[C@@H](Cc2ccccc2F)NC(=O)[C@@H]2CCCN2C1=O [Example 104]', 'Emax', '%', 100),
  ('CC(=O)N[C@@H](CCCNC(=N)N)C(=O)N[C@H]1CCC(=O)NCCC[C@@H](C(N)=O)NC(=O)[C@H](Cc2c[nH]c3ccccc23)NC(=O)[C@H](CCCNC(=N)N)NC(=O)[C@@H](Cc2ccc(F)cc2)NC(=O)[C@H](CCS(C)(=O)=O)NC1=O [Example 68]', 'Emax', '%', 91),
  ('CC(=O)N[C@@H](CCCNC(=N)N)C(=O)N[C@H]1CCC(=O)NCCC[C@@H](C(N)=O)NC(=O)[C@H](Cc2c[nH]c3ccccc23)NC(=O)[C@H](CCCNC(=N)N)NC(=O)[C@@H](Cc2ccccc2F)NC(=O)[C@@H]2CCCN2C1=O [Example 66]', 'Emax', '%', 88),
  ('CC(=O)N[C@@H](CCCNC(=N)N)C(=O)N[C@H]1CCC(=O)NCCC[C@@H](C(N)=O)NC(=O)[C@H](Cc2c[nH]c3ccccc23)NC(=O)[C@H](CCCNC(=N)N)NC(=O)[C@@H](Cc2ccc(Cl)cc2)NC(=O)[C@H](CCN)NC1=O [Example 3]', 'Emax', '%', 100),
  ('CC(=O)N[C@@H](CCCNC(=N)N)C(=O)N[C@H]1CCC(=O)NCCC[C@@H](C(N)=O)NC(=O)[C@H](Cc2c[nH]c3ccccc23)NC(=O)[C@H](CCCNC(=N)N)NC(=O)[C@@H](Cc2cccc(Cl)c2)NC(=O)[C@H](CO)NC1=O [Example 35]', 'Emax', '%', 84),
  ('CC(=O)N[C@@H](CCCNC(=N)N)C(=O)N[C@H]1CCC(=O)NCCC[C@@H](C(N)=O)NC(=O)[C@H](Cc2c[nH]c3ccccc23)NC(=O)[C@H](CCCNC(=N)N)NC(=O)[C@@H](Cc2ccccc2Cl)NC(=O)[C@H](COCc2ccccc2)NC1=O [Example 47]', 'Emax', '%', 100);

###

experimental.target: hMC4-R (Homo sapiens (Human), UniProt P32245)
Sequence (P32245 whole entry): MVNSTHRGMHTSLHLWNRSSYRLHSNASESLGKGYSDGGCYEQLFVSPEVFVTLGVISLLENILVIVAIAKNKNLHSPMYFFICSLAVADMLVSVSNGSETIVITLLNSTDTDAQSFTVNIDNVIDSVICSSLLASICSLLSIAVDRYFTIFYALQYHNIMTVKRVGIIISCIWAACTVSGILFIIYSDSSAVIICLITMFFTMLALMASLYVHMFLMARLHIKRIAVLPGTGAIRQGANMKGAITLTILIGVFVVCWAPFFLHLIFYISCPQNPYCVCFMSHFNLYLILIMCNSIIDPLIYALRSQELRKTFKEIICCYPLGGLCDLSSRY
test.protocol: High and low density hMC4-R functional assay (cAMP, HEK293-T-REx-MC4-R cells)
Format: cell-based
conditions.used: 0.1 ng/mL Doxycycline (low density hMC4-R system)
quantity.measured: EC50

INSERT INTO assay_data (smiles_string, recorded_result) VALUES
  ('CC(=O)N[C@@H](CCCNC(=N)N)C(=O)N[C@H]1CC(=O)NCCCC[C@@H](C(N)=O)NC(=O)[C@H](Cc2c[nH]c3ccccc23)NC(=O)[C@H](CCCNC(=N)N)NC(=O)[C@@H](Cc2ccc(F)cc2)NC(=O)[C@@H]2CCCN2C1=O', '1 nM'),
  ('CC(=O)N[C@@H](CCCNC(=N)N)C(=O)N[C@H]1CCC(=O)NCCC[C@@H](C(=O)O)NC(=O)[C@H](Cc2c[nH]c3ccccc23)NC(=O)[C@H](CCCNC(=N)N)NC(=O)[C@@H](Cc2ccccc2Cl)NC(=O)[C@H](CCCN)NC1=O', '2 nM'),
  ('CC(=O)N[C@@H](CCCNC(=N)N)C(=O)N[C@H]1CCCNC(=O)CC[C@@H](C(N)=O)NC(=O)[C@H](Cc2c[nH]c3ccccc23)NC(=O)[C@H](CCCNC(=N)N)NC(=O)[C@@H](Cc2ccc(F)cc2)NC(=O)[C@H](CC(N)=O)NC1=O', '0.4 nM'),
  ('CC(=O)N[C@@H](CCCNC(=N)N)C(=O)N[C@H]1CCC(=O)NCCC[C@@H](C(N)=O)NC(=O)[C@H](Cc2c[nH]c3ccccc23)NC(=O)[C@H](CCCNC(=N)N)NC(=O)[C@@H](Cc2ccccc2F)NC(=O)[C@H](CCC(N)=O)NC1=O', '0.6 nM'),
  ('CC(=O)N[C@H](CCCNC(=N)N)C(=O)N[C@H]1CC(=O)NCCCC[C@@H](C(N)=O)NC(=O)[C@H](Cc2c[nH]c3ccccc23)NC(=O)[C@H](CCCNC(=N)N)NC(=O)[C@@H](Cc2cccc(Cl)c2)NC(=O)[C@H](CCC(N)=O)NC1=O', '6 nM'),
  ('CC(=O)N[C@@H](CCCNC(=N)N)C(=O)N[C@H]1CCC(=O)NCCC[C@@H](C(N)=O)NC(=O)[C@H](Cc2c[nH]c3ccccc23)NC(=O)[C@H](CCCNC(=N)N)NC(=O)[C@@H](Cc2ccc(-c3ccccc3)cc2)NC(=O)[C@H](CCN)NC1=O', '3 nM'),
  ('CC(=O)N[C@@H](CCCNC(=N)N)C(=O)N[C@H]1CCCNC(=O)CC[C@@H](C(N)=O)NC(=O)[C@H](Cc2c[nH]c3ccccc23)NC(=O)[C@H](CCCNC(=N)N)NC(=O)[C@@H](Cc2cc(F)c(F)c(F)c2)NC(=O)[C@H](CCC(N)=O)NC1=O', '0.45 nM'),
  ('CC(=O)N[C@H](CCCNC(=N)N)C(=O)N[C@H]1CCCNC(=O)CC[C@@H](C(N)=O)NC(=O)[C@H](Cc2c[nH]c3ccccc23)NC(=O)[C@H](CCCNC(=N)N)NC(=O)[C@@H](Cc2ccccc2F)NC(=O)[C@H](Cc2c[nH]cn2)NC1=O', '0.13 nM');

###

experimental.target: hMC4-R (Homo sapiens (Human))
test.protocol: High and low density hMC4-R functional assay (cAMP, HEK293-T-REx-MC4-R cells)
Type: cell-based
conditions.used: 0.1 ng/mL Doxycycline (low density hMC4-R system); NDP-α-MSH = 100%; read-out: Intrinsic Activity (%)
quantity.measured: Emax

INSERT INTO results (compound, recorded_result) VALUES
  ('CC(=O)N[C@@H](CCCNC(=N)N)C(=O)N[C@H]1CCC(=O)NCCC[C@@H](C(N)=O)NC(=O)[C@H](Cc2c[nH]c3ccccc23)NC(=O)[C@H](CCCNC(=N)N)NC(=O)[C@@H](Cc2ccccc2F)NC(=O)[C@H](CCC(N)=O)NC1=O [Example 59]', '90%'),
  ('CC(=O)N[C@@H](CCCNC(=N)N)C(=O)N[C@H]1CCC(=O)NCCC[C@@H](C(N)=O)NC(=O)[C@H](Cc2c[nH]c3ccccc23)NC(=O)[C@H](CCCNC(=N)N)NC(=O)[C@@H](Cc2cccc(Cl)c2)NC(=O)[C@H](CCCNC(N)=O)NC1=O [Example 99]', '32%'),
  ('CC(=O)N[C@@H](CCCNC(=N)N)C(=O)N[C@H]1CCC(=O)NCCC[C@@H](C(=O)O)NC(=O)[C@H](Cc2c[nH]c3ccccc23)NC(=O)[C@H](CCCNC(=N)N)NC(=O)[C@@H](Cc2ccccc2Cl)NC(=O)[C@H](CCCN)NC1=O [Example 49]', '74%'),
  ('CC(=O)N[C@@H](CCCNC(=N)N)C(=O)N[C@H]1CCC(=O)NCCC[C@@H](C(N)=O)NC(=O)[C@H](Cc2c[nH]c3ccccc23)NC(=O)[C@H](CCCNC(=N)N)NC(=O)[C@@H](Cc2ccccc2Cl)NC(=O)[C@H]([C@@H](C)OCc2ccccc2)NC1=O [Example 63]', '30%');

###

experimental.target: hMC4-R (Homo sapiens (Human))
test.protocol: High and low density hMC4-R functional assay (cAMP, HEK293-T-REx-MC4-R cells)
Format: cell-based
conditions.used: 0.1 ng/mL Doxycycline (low density hMC4-R system)
quantity.measured: EC50 (nM)

INSERT INTO measurements (smiles_string, experimental_target, measurement_unit, recorded_result) VALUES
  ('CC(=O)N[C@@H](CCCNC(=N)N)C(=O)N[C@H]1CCC(=O)NCCC[C@@H](C(N)=O)NC(=O)[C@H](Cc2c[nH]c3ccccc23)NC(=O)[C@H](CCCNC(=N)N)NC(=O)[C@@H](Cc2ccc(F)cc2)NC(=O)[C@H](CO)NC1=O', 'hMC4-R (Homo sapiens (Human))', 'nM', 1),
  ('CC(=O)N[C@@H](CCCNC(=N)N)C(=O)N[C@H]1CCC(=O)NCCC[C@@H](C(N)=O)NC(=O)[C@H](Cc2c[nH]c3ccccc23)NC(=O)[C@H](CCCNC(=N)N)NC(=O)[C@@H](Cc2ccccc2F)NC(=O)[C@@H]2C[C@@H](O)CN2C1=O', 'hMC4-R (Homo sapiens (Human))', 'nM', 1);
